Target: T1, human TNFR2 (human, UniProt P20333 23-461)
T1 construct: expressed on the surface of CHO cells; also called HuTNFR2; TNFRSF1B
T1 sequence: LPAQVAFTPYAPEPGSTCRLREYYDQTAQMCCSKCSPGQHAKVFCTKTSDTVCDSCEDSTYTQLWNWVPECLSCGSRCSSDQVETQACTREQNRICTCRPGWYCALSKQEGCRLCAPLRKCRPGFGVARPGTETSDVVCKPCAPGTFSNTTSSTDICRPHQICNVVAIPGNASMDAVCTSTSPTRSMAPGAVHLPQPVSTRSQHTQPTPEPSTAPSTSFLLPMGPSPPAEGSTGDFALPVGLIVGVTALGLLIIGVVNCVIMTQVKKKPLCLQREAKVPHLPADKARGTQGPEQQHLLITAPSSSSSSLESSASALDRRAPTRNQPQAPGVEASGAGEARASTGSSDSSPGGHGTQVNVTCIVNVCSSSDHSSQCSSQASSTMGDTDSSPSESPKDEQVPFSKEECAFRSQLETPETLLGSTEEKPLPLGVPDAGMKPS
Assay: binding to human TNFR2 CHO cells
measurement.kind: binding result

binder	measurement.kind	reported.result
IgG 1922 (antibody, name in Kabat numbering, V domains shown, IgG) VH: QVQLVQSGAEVKKPGASVKVSCKVSGFSFPSSGVDWVRQAPGQGLEWLGVTWGVGSTHYNQKFQGRVTITKDTSKSTVYMELSSLRSEDTAVYYCASGESTEGFVYWGQGTLVTVSS VL: DIQLTQSPSFLSASVGDRVTITCKASQNVGTAVAWYQQKPGKAPKLLIYAASTLQSGVPSRFSGSGSGTEFTLTISSLQPEDFATYYCQQYNSYPFGGGTKVEIKR	binding result	no binding
IgG 1941 (antibody, name in Kabat numbering, V domains shown, IgG) VH: QVQLVQSGAEVKKPGASVKVSCKVSGFSFPSSGVDWVRQAPGQGLEWLGVTWGVGSTHYNQKFQGRVTITKDTSKSTVYMELSSLRSEDTAVYYCASGEHDEGFVYWGQGTLVTVSS VL: DIQLTQSPSFLSASVGDRVTITCKASQNVGTAVAWYQQKPGKAPKLLIYAASTLQSGVPSRFSGSGSGTEFTLTISSLQPEDFATYYCLQKSSYPLTFGGGTKVEIKR	binding result	no binding
